- TARGET_OR_SYSTEM: CDK4 (Homo sapiens, UniProt P11802+Q16531)
- Sequence (P11802 whole entry): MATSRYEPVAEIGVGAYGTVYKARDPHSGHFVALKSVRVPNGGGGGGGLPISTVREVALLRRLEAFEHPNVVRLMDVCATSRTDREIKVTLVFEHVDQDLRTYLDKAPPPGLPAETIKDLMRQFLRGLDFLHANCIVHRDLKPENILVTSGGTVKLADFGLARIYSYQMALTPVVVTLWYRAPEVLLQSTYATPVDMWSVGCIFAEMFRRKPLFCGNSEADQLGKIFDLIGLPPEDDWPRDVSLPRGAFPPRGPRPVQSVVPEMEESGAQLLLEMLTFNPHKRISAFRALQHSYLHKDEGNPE
- Sequence (P24385 whole entry partner): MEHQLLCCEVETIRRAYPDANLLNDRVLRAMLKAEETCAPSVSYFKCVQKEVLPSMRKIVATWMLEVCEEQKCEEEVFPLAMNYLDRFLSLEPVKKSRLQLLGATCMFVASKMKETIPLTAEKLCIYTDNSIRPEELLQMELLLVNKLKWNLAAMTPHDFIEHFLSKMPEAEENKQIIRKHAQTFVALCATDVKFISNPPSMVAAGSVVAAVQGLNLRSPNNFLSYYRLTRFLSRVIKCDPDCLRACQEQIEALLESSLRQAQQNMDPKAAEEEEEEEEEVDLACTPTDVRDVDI
- Sequence (Q16531 2-1140 limits assumed): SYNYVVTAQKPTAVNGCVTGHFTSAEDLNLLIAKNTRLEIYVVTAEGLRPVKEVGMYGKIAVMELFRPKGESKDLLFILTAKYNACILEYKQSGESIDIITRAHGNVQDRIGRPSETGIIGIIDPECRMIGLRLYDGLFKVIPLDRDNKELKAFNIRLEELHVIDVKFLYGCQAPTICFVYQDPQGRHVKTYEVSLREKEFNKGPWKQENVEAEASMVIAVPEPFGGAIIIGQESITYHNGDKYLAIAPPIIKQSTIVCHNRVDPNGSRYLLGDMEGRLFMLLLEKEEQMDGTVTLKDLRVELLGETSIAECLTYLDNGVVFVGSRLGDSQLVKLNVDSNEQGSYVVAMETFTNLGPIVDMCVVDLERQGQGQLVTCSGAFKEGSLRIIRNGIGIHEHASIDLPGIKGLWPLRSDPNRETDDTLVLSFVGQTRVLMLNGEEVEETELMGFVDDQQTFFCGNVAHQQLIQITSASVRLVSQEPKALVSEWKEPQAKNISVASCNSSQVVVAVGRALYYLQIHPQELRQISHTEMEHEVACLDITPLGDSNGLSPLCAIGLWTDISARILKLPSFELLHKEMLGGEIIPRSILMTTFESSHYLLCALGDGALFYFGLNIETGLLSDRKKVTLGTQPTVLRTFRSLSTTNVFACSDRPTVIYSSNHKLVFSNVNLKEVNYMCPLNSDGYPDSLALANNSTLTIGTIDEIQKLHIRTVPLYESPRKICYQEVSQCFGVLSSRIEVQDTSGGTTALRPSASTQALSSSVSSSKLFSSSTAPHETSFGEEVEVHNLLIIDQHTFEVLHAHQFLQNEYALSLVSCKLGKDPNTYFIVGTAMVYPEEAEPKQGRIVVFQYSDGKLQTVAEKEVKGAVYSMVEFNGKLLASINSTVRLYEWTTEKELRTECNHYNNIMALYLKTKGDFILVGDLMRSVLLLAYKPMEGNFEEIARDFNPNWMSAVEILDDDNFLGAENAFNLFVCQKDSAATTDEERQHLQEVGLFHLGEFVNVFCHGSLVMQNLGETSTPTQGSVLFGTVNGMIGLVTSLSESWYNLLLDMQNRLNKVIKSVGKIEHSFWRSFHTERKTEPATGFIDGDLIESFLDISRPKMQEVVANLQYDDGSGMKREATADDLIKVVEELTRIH
- METHOD_NOTES: HiBiT detection of HiBiT-tagged CDK4 protein level in MCF7 cells, 16 hours (Table 8)
- Format: cell-based
- Set-up: expressed in transfected cells; host or cells: MCF7
- CONDITION: 100 nM, MCF7 cells stably expressing HiBiT tagged target proteins, read-out: % CDK4 Relative Level (100 nM)
RESULT_TYPE: activity at 0.1 µM

MOLECULE	activity at 0.1 µM
CC(=O)c1c(C)c2cnc(Nc3ccc(CN4CCC(CC(=O)NC5CC6(C5)CC(Nc5nc(NC(C)C)ccc5C(=O)Nc5ccc(N(C)C)nn5)C6)C4)cn3)nc2n(C2CCCC2)c1=O (stereo not shown) [CPD-596]	> 85%
CC(=O)c1c(C)c2cnc(Nc3ccc(N4CCC(N(C)CC(=O)NC56CC(Nc7nc(NC(C)C)ccc7C(=O)Nc7ccc(N(C)C)nn7)(C5)C6)CC4)cn3)nc2n(C2CCCC2)c1=O [CPD-505]	> 85%
CC(=O)c1c(C)c2cnc(Nc3ccc(N4CCN(CC5(C(=O)N6CC7(CC(Nc8nc(NC(C)C)ccc8C(=O)Nc8ccc(N(C)C)nn8)C7)C6)CC5)CC4)cn3)nc2n(C2CCCC2)c1=O [CPD-306]	55 to 85%

For record CNc1ccc(C(=O)Nc2ccc(N(C)C)nn2)c(NCCCCCCCCNC(=O)CN2CCN(c3ccc(Nc4ncc5cc(C(=O)N(C)C)n(C6CCCC6)c5n4)nc3)CC2)n1 [CPD-630] the listed activity at 0.1 µM is 55 to 85%

Summary for this molecule, CC(=O)c1c(C)c2cnc(Nc3ccc(N4CCN(C(C)CC(=O)N5CC6(CC(Nc7nc(NC(C)C)ccc7C(=O)Nc7cn(C)c(C8CC8)n7)C6)C5)CC4)cn3)nc2n(C2CCCC2)c1=O (stereo not shown) [CPD-338] : activity at 0.1 µM is 55 to 85%

Field activity at 0.1 µM (entry CC(=O)c1c(C)c2cnc(Nc3ccc(CN4CCN(CC(=O)NC5CC6(C5)CC(Nc5nc(NC(C)C)ccc5C(=O)Nc5cn(C)c(C7CC7)n5)C6)CC4)cn3)nc2n(C2CCCC2)c1=O (stereo not shown) [CPD-589] ) reads 55 to 85%

Note to self: activity at 0.1 µM recorded for CNc1ccc(C(=O)Nc2ccc(N(C)C)nn2)c(NCCCCCC(=O)N2CCN(c3ccc(Nc4ncc(F)c(-c5cc(F)c6nc(C)n(C(C)C)c6c5)n4)nc3)CC2)n1 [CPD-651] was > 85%

activity at 0.1 µM recorded for this molecule, CC(=O)c1c(C)c2cnc(Nc3ccc(CN4CCC(CC(=O)NC5CC6(C5)CC(Nc5nc(NC(C)C)ccc5C(=O)Nc5ccc(N(C)C)nn5)C6)CC4)cn3)nc2n(C2CCCC2)c1=O (stereo not shown) [CPD-593] , is > 85%

Sample CC(=O)c1c(C)c2cnc(Nc3ccc(N4CCC5(CC4)CC5C(=O)NC4CC5(C4)CC(Nc4nc(NC(C)C)ccc4C(=O)Nc4ccc(N(C)C)nn4)C5)cn3)nc2n(C2CCCC2)c1=O (stereo not shown) [CPD-414] ; activity at 0.1 µM observed: 55 to 85%

The molecule listed as CC(=O)c1c(C)c2cnc(Nc3ccc(N4CCC5(CC4)CC5C(=O)N4CCC(Nc5nc(NC(C)C)ccc5C(=O)Nc5ccc(N(C)C)nn5)CC4)cn3)nc2n(C2CCCC2)c1=O (stereo not shown) [CPD-407] shows activity at 0.1 µM equal to 55 to 85%
